Please respond with reported IC50 for every item in the list.
- System Name: P70S6 kinase (T412E) (Homo sapiens (Human), UniProt P23443, T412E)
- Sequence (P23443 whole entry T412E): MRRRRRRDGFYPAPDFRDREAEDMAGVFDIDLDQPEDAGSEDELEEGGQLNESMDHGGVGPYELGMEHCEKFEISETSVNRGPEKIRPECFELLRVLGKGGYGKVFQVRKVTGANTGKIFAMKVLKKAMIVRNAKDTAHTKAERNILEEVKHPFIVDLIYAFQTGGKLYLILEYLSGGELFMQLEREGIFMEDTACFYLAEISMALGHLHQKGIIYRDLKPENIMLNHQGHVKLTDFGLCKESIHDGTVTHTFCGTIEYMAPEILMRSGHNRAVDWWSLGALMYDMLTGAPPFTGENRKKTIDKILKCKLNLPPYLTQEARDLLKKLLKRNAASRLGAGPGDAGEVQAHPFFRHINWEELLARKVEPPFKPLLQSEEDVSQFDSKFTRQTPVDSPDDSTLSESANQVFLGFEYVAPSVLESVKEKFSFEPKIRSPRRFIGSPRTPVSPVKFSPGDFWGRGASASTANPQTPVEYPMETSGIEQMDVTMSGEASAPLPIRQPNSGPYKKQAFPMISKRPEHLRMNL
- Test Summary: P70S6 radiometric assay
- Assay type: biochemical
- Experimental Context: enzyme 2 nM, ATP approximately 15 μM, 50 minutes at room temperature; read-out: IC50 (anti-P70S6K activity)
Provide the reading as a plain figure in nM.

So, NC1CCN(c2ncnc3[nH]c(=O)[nH]c23)CC1 ? Its IC50 was 3000

So, NC1(Cc2ccc(Cl)cc2Cl)CCN(c2ncnc3[nH]ccc23)CC1 ? Its IC50 was 59

So, NC1(Cc2ccc(Cl)cc2)CCN(c2ncnc3[nH]ccc23)CC1 ? Its IC50 was 94

So, NC1(Cc2ccc(Cl)cc2)CCN(c2ccnc3[nH]ccc23)CC1 ? Its IC50 was 30

So, NCC1(c2ccc(OC(F)(F)F)cc2)CCN(c2ncnc3[nH]ccc23)CC1 ? Its IC50 was 7
